The values you see were collected from PubChem BioAssay.

Documented inhibition across a set of molecules
# procedure.summary: yeast transport mutant growth inhibition pilot in 384-well plates, post-Golgi transport modulator project (AID 636)
# experimental.conditions: absorbance 615 nm, about 18 h, stronger effect = higher value
result.type: inhibition (%)

* CC1(C)CC(=O)C=C(NCCN2CCN(C(=O)Nc3ccccc3)CC2)C1 | -5.07
* COc1cccc(-n2c(SCC(=O)OC(C)C)nnc2-c2cccnc2)c1 | -1.32
* CC1CCN(C(=O)CSc2nnc(-c3cccnc3)n2C2CCCCC2)CC1 | -2.76
* CC(=O)Nc1cccc(-c2nnc(-c3ccccc3)o2)c1 | -5.58
* O=C(O)C1C2CCC(C2)C1C(=O)NCCCn1ccnc1 (centres undefined) | -7.24
* CN(c1ccccc1)S(=O)(=O)c1cc(C(=O)N2CCN(c3ccccn3)CC2)ccc1Cl | 0.39
* CCOC(=O)c1cc2sccc2n1CC(=O)Nc1ccc2c(c1)OCCO2 | -6.1
* O=C(CN1C(=O)COc2ccccc21)NCCCN1CCc2ccccc2C1 | -1.69
* O=C(NCCN1CCCC1)C1COc2ccccc2O1 (centres undefined) | -7.14
* Cc1ccc(S(=O)(=O)NCCc2ccncc2)cc1 | -2.47
* CC(=O)c1ccc(NC(=O)CSc2nnc(-c3ccoc3C)n2Cc2ccccc2)cc1 | -2.27
* Cn1nc(-c2ccc(C(=O)N3CCN(c4ccccc4)CC3)cc2)c2ccccc2c1=O | 0.26
* COc1ccc(C)cc1-n1nnnc1SCC(=O)NC(=O)NCc1ccco1 | -1.69
* N#CCSCC(=O)Nc1ccc(F)cc1 | -3.68
* CSc1n[nH]c(NCc2ccccc2)n1 | -5.13
* O=C(c1ccco1)N1CCN(C(=O)c2ccc(Cn3cc(Br)cn3)o2)CC1 | -2.11
* NC(=O)SCC(=O)Nc1cccc(Cl)c1 | -5.19
* CCN(CC(=O)O)S(=O)(=O)c1cc(Cl)ccc1Cl | -7.2
* CCC(=O)n1nc(-c2ccco2)nc1N | 0.53
* Cc1ccc(NC(=O)c2ccco2)cc1NC(=O)CSc1nnc(-c2cccs2)n1C | -6.13
* CC(C)Cn1c(N)c(C(=O)NCCN2CCOCC2)c2nc3ccccc3nc21 | -5.2
* Oc1ccc(Nc2nc(-c3ccc(O)cc3)cs2)cc1 | -8.13
* COC(=O)c1ccc(NC2(C#N)C(=O)Nc3ccccc32)cc1 (centres undefined) | -5.33
* COc1cccc(NC(=O)C2CCN(c3ncccn3)CC2)c1 | -6.4

----------
# procedure.summary: viability of HCT116 without oncogenic beta-catenin – human colon tumor cells, pilot screen (AID 823);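 note: 0% = wells killed by 20 µM Hyamine and 100% = untreated DMSO cell wells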
# experimental.conditions: HCT116 beta-catenin knockout viability, CellTiter-Glo, 60 h; at 10 µM; stronger effect = lower value
Results filed as inconclusive are left out.
result.type: viability (%)

* COc1ccc(OC)c(NC(=O)CN(c2ccc(C(C)C)cc2)S(=O)(=O)c2c(C)noc2C)c1 | 56.5
* C1=C(c2ccccc2)CCN(c2nc3ccccc3n3cnnc23)C1 | 90.4
* Cc1ccc(-c2nc(C(=O)NC3CCCCCC3)no2)cc1 | 103
* CN1CSC2=C(C#N)C(c3cccc(OCc4ccccc4)c3)CC(=O)N2C1 (stereo not given) | 85.7
* O=C(Cn1cc2c(n1)CCCC2)NCc1ccccn1 | 104
* N#Cc1c(NC(=O)CCCN2C(=O)c3ccccc3C2=O)oc(-c2ccccc2)c1-c1ccccc1 | 101
* COc1ccc(-c2n[nH]c(C)c2-c2cnn(-c3ccccc3)c2)c(O)c1 | 85.2
* O=C1C2CCCN2C(c2ccc(F)cc2)N1c1ccc(Cl)cc1 (stereo not given) | 76.5
* COc1ccc(-c2cc(CCCC(=O)NCc3ccccn3)no2)cc1 | 98.8
* CCC1(C)Cc2ccccc2-c2nc3n(c(=O)c21)CCCCC3 (stereo not given) | 88.1
* Brc1ccc(Oc2nnnn2-c2ccccc2)cc1 | 95.3
* O=C(c1cc(C2CC2)on1)N1CCN(c2ccc(F)cc2)CC1 | 96.8
* NC/C(=N\O)c1ccc(Cl)cc1Cl | 97.7
* CCOC(=O)C1Cn2c(nc3c(c2=O)C2(CCCC2)Cc2ccccc2-3)S1 (stereo not given) | 84.2
* N#CC1=C2SCN(c3ccccc3)CN2C(=O)CC1c1ccccc1Cl (stereo not given) | 97.2
